B1: CPEB3 Ribozyme (parent)
chain: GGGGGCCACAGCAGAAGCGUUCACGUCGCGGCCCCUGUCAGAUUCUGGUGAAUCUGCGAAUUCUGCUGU

variants of: B1; assay: self-cleavage, relative activity (ratio to wild type); higher = more cleavage; co-transcriptional
Would you mind telling me the reported self-cleavage of each entry?
// return a plain number; no unit text

IN: Which measured self-cleavage value corresponds to C12G U62G ?
OUT: 0.338

IN: Which measured self-cleavage value corresponds to G25C C34G ?
OUT: 0.14

IN: Which measured self-cleavage value corresponds to C34U G47A ?
OUT: 0.958

IN: Which measured self-cleavage value corresponds to G37C U53A ?
OUT: 0.256
